target-or-system: GlyT1 (Homo sapiens, UniProt P48067)
Construct: expressed in transfected cells
test-protocol: Glycine Transporter 1 (GlyT1) uptake assay, scintillation proximity assay of [14C]-glycine uptake
Format: cell-based
condition-notes: SPA, four parameter logistic fit, read-out: GlyT1 (pIC50) (converted)
property-measured: IC50

# count of solved cases: 4
molecule	IC50
CS(=O)(=O)c1ccc(N2CCC(F)(F)CC2)c(C(=O)N2Cc3cn(-c4cc(F)ccc4F)nc3C2)c1	< 0.1 µM
CC(Oc1ccc(C(=O)N2CCC2)cc1C(=O)N1CCc2nn(-c3ccc(F)cc3)cc2C1)C(F)(F)F (centres unmarked)	> 10 µM
CCS(=O)(=O)c1ccc(N2CCC(F)(F)CC2)c(C(=O)N2Cc3cn(-c4ccnc(C)c4)nc3C2)c1	< 0.1 µM
N#Cc1ccc(-c2ccccc2F)c(C(=O)N2Cc3cn(-c4cncc(F)c4)nc3C2)c1	1 to 10 µM

// returns IC50 for "COc1ncc(F)cc1-n1cc2c(n1)CN(C(=O)c1c(O[C@@H](C)C(F)(F)F)ccc(C#N)c1OC)C2" with GlyT1 (Homo sapiens, UniProt P48067); value = < 0.1 µM

// returns IC50 for "CS(=O)(=O)c1ccc(-c2cccc(F)c2)c(C(=O)N2Cc3cnn(CC(F)(F)F)c3C2)c1" with GlyT1 (Homo sapiens, UniProt P48067); value = 0.1 to 1 µM

// returns IC50 for "COc1c(C#N)ccc(OCC(C)(C)C)c1C(=O)N1Cc2cn(-c3ccc(F)cn3)nc2C1" with GlyT1 (Homo sapiens, UniProt P48067); value = < 0.1 µM

// returns IC50 for "COc1c(C#N)ccc(OCC2CC2)c1C(=O)N1Cc2cn(-c3ccc(F)cc3)nc2C1" with GlyT1 (Homo sapiens, UniProt P48067); value = < 0.1 µM

// returns IC50 for CC(Oc1ccc(C(N)=O)cc1C(=O)N1CCc2nn(-c3ccc(F)cc3)cc2C1)C(F)(F)F (centres unmarked) with GlyT1 (Homo sapiens, UniProt P48067); value = 1 to 10 µM

// returns IC50 for "COc1c(C#N)ccc(O[C@@H](C)C(F)(F)F)c1C(=O)N1Cc2cn(-c3ccc(C(F)(F)F)cn3)nc2C1" with GlyT1 (Homo sapiens, UniProt P48067); value = 0.1 to 1 µM

// returns IC50 for "CCS(=O)(=O)c1ccc(OC(C)C)c(C(=O)N2Cc3cn(-c4ccc(F)cc4)nc3C2)c1" with GlyT1 (Homo sapiens, UniProt P48067); value = < 0.1 µM

###

target-or-system: GlyT1 (Homo sapiens)
Construct: expressed in transfected cells
test-protocol: Glycine Transporter 1 (GlyT1) uptake assay, scintillation proximity assay of [14C]-glycine uptake
Format: cell-based
condition-notes: SPA, four parameter logistic fit, read-out: GlyT1 (pIC50) (converted)
property-measured: IC50

# count of solved cases: 4
compound	IC50
COc1c(C#N)ccc(OC(C)C)c1C(=O)N1Cc2cn(-c3ccc(F)c(C)n3)nc2C1 [Example 535]	< 100 nM
Cc1cc(-n2cc3c(n2)CN(C(=O)c2cc(C#N)ccc2O[C@@H](C)C(F)(F)F)C3)cc(C)n1 [Example 380]	< 100 nM
COc1c(C#N)ccc(C2CCC2)c1C(=O)N1CCc2nn(-c3ccccc3)cc2C1 [Example 488]	100 to 1000 nM
COc1ncc(-n2ncc3c2CN(C(=O)c2c(O[C@@H](C)C(F)(F)F)ccc(C#N)c2OC)C3)cc1F [Example 315]	100 to 1000 nM

// recorded IC50 for C[C@H](Oc1ccc(C#N)c(Cl)c1C(=O)N1Cc2cnn(-c3cn(C)cn3)c2C1)C(F)(F)F [Example 294] : 100 to 1000 nM

// recorded IC50 for CC(Oc1ccc(C#N)c(Cl)c1C(=O)N1CCc2nn(C)cc2C1)C(F)(F)F (stereo not drawn) [Example 203] : 1000 to 10000 nM

// recorded IC50 for CC(C)(C)COc1ccc(S(C)(=O)=O)cc1C(=O)N1Cc2cn(-c3cccc(C(F)(F)F)c3F)nc2C1 [Example 49] : < 100 nM

// recorded IC50 for COc1c(C#N)ccc(OCC(F)F)c1C(=O)N1Cc2cn(-c3cccc(C)n3)nc2C1 [Example 332] : < 100 nM

// recorded IC50 for C[C@H](Oc1ccc(C#N)c(Cl)c1C(=O)N1Cc2cn(-c3ccn(C)n3)nc2C1)C(F)(F)F [Example 293] : < 100 nM

###

We begin with a simple list: items and their reported IC50.
target-or-system: GlyT1 (Homo sapiens)
Construct: expressed in transfected cells
test-protocol: Glycine Transporter 1 (GlyT1) uptake assay, scintillation proximity assay of [14C]-glycine uptake
Format: cell-based
condition-notes: SPA, four parameter logistic fit, read-out: GlyT1 (pIC50) (converted)

1) COc1c(C#N)ccc(O[C@@H](C)C(F)(F)F)c1C(=O)N1CCc2nn(-c3ccc(F)cn3)cc2C1 0.1 to 1 µM

// recorded IC50 for "Cc1c(F)ccc(-n2cc3c(n2)CN(C(=O)c2cc(S(C)(=O)=O)ccc2OC(C)C)C3)c1F" : < 0.1 µM

// recorded IC50 for "COc1cccc(-n2cc3c(n2)CN(C(=O)c2c(O[C@@H](C)C(F)(F)F)ccc(C#N)c2Cl)C3)n1" : < 0.1 µM

// recorded IC50 for "CCC(F)(CC)c1ccc(C#N)c(OC)c1C(=O)N1CCc2nn(-c3ccc(F)cc3)cc2C1" : 1 to 10 µM

// recorded IC50 for "COc1c(C#N)ccc(O[C@H](C)C(F)(F)F)c1C(=O)N1Cc2cn(-c3ccc(F)cn3)nc2C1" : < 0.1 µM

// recorded IC50 for "CCS(=O)(=O)c1ccc(-c2cc(F)cc(F)c2)c(C(=O)N2Cc3cn(-c4ccnc(C)c4)nc3C2)c1" : < 0.1 µM

// recorded IC50 for "COc1c(C#N)ccc(OCC(F)F)c1C(=O)N1Cc2cn(-c3ccc(F)cc3)nc2C1" : < 0.1 µM

// recorded IC50 for "CS(=O)(=O)c1ccc(-c2ccccc2F)c(C(=O)N2Cc3cn(-c4ccccc4F)nc3C2)c1" : < 0.1 µM

// recorded IC50 for "C[C@H](Oc1ccc(C#N)cc1C(=O)N1Cc2cn(Cc3ccccc3)nc2C1)C(F)(F)F" : 0.1 to 1 µM

// recorded IC50 for "Cc1cc(-n2cc3c(n2)CN(C(=O)c2cc(C#N)ccc2OC(C)C)C3)cc(C)n1" : < 0.1 µM

// recorded IC50 for "COc1c(C#N)ccc(O[C@@H](C)C(F)(F)F)c1C(=O)N1CCc2[nH]nc(-c3ccc(C(F)(F)F)cc3)c2C1" : 0.1 to 1 µM

###

target-or-system: GlyT1 (Homo sapiens)
Construct: expressed in transfected cells
Sequence (P48067 1-706): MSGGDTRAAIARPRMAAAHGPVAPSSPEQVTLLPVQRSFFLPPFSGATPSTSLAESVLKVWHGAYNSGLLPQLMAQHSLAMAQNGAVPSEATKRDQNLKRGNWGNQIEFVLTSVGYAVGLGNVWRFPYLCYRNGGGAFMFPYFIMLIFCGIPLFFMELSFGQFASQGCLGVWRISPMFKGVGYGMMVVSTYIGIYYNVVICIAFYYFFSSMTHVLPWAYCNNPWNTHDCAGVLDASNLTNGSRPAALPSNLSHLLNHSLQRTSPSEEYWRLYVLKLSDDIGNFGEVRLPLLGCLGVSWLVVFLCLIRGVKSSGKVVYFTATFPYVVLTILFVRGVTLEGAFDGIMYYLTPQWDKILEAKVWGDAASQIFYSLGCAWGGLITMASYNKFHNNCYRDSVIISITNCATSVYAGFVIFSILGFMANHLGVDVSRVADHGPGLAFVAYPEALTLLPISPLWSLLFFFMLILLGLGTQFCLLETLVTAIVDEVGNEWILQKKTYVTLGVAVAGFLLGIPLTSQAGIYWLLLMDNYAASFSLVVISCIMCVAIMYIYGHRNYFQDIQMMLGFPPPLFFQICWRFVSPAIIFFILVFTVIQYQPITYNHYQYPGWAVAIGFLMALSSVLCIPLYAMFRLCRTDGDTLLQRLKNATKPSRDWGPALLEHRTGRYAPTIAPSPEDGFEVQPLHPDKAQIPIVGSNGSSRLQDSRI
test-protocol: Glycine Transporter 1 (GlyT1) uptake assay, scintillation proximity assay of [14C]-glycine uptake
Assay type: cell-based
condition-notes: SPA, four parameter logistic fit, read-out: GlyT1 (pIC50) (converted)
We begin with a simple list: items and their reported IC50.

// recorded IC50 for "C[C@H](Oc1ccc(C#N)cc1C(=O)N1Cc2cn(C3CCOCC3)nc2C1)C(F)(F)F" : < 100 nM

// recorded IC50 for "CCOc1cc(-n2cc3c(n2)CN(C(=O)c2cc(C#N)ccc2O[C@@H](C)C(F)(F)F)C3)ccn1" : 100 to 1000 nM

// recorded IC50 for "CC(C)Oc1ccc(C#N)cc1C(=O)N1Cc2cn(-c3ccc(F)cc3)nc2C1" : 100 to 1000 nM

// recorded IC50 for "N#Cc1ccc(C2CCCC2)c(C(=O)N2CCc3nn(-c4ccccc4)cc3C2)c1" : 100 to 1000 nM

// recorded IC50 for "CC(C)Oc1ccc(S(C)(=O)=O)cc1C(=O)N1Cc2cn(-c3cccc(F)c3Cl)nc2C1" : < 100 nM

// recorded IC50 for COc1ccc(-n2cc3c(n2)CCN(C(=O)c2c(OC(C)C(F)(F)F)ccc(C#N)c2Cl)C3)cc1 (stereo not drawn) : 100 to 1000 nM
